# testName: reduction of polyQ htt aggregates in cells – imaging, exon1htt(103Q)mCFP cells, high-content imaging, primary screen (AID 483);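 further: compound exposure lasted 3 days before fixation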
# assayConditions: exon1htt(103Q)mCFP cell line, aggregate imaging, at 2 µM; hits give high values
measurementType: inhibition of aggregation (%)

INSERT INTO results (molecule, measurementtype, unitsymbol, number) VALUES
  ('C=CCN1C(=O)C2(C(C#N)=C(N)Oc3n[nH]c(CCC)c32)c2ccccc21 (stereo unspecified)', 'inhibition of aggregation', '%', -32.8),
  ('Cc1ccc(CCNC(=O)C2CCCN(S(=O)(=O)c3cnc[nH]3)C2)cc1 (stereo unspecified)', 'inhibition of aggregation', '%', -6.4),
  ('CCCCn1c(=O)[nH]c(=O)c2c1nc(COc1ccc(C#N)cc1)n2CCC', 'inhibition of aggregation', '%', -40.4),
  ('N#CC1=C(N)Oc2c(ccc3cccnc23)C1c1cccnc1 (stereo unspecified)', 'inhibition of aggregation', '%', 4.4),
  ('O=C(Nc1ccc(OC(=O)c2ccco2)cc1)c1ccco1', 'inhibition of aggregation', '%', -7.4),
  ('COCCn1c(C)cc(C(=O)CSc2nc3ccccc3c(=O)[nH]2)c1C', 'inhibition of aggregation', '%', -2.6),
  ('COC(=O)CCC(=O)Nc1cccc(Cl)c1', 'inhibition of aggregation', '%', 5),
  ('Cn1c(SCC(=O)Nc2ccc3c(c2)oc2ccccc23)nnc1-c1ccccc1', 'inhibition of aggregation', '%', 4.5),
  ('COc1cccc(C2=Nn3c(nnc3-c3ccccc3O)SC2)c1', 'inhibition of aggregation', '%', 2.3),
  ('COCCn1c(COc2ccc(Cl)cc2)nnc1SCC(N)=O', 'inhibition of aggregation', '%', 7.6),
  ('O=c1[nH]c(/C(=N\O)c2ccccc2)no1', 'inhibition of aggregation', '%', -5);

###

# assayedTarget: Voltage-gated potassium channel subunit beta-2 (Rattus norvegicus)
# testName: inhibitors of rat Kvbeta2 reductase activity – biochemical, NADPH fluorescence, primary screen (AID 622);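 further: slope of raw intensity against log time taken from 70 to 1610 s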
# assayConditions: recombinant KvBeta, 4-cyanobenzaldehyde reduction, at 10 µM, hits give high values
measurementType: fluorescence slope

INSERT INTO results (compound, assayedtarget, number) VALUES
  ('O=C(CCCCCN1C(=O)CCC1=O)NCc1ccccc1', 'Voltage-gated potassium channel subunit beta-2 (Rattus norvegicus)', -0.605),
  ('O=C(CCSc1nccn1Cc1ccccc1)N1CCOCC1', 'Voltage-gated potassium channel subunit beta-2 (Rattus norvegicus)', -0.524),
  ('NC(=O)CSc1nnc(-c2cc3ccccc3o2)n1Cc1ccccc1', 'Voltage-gated potassium channel subunit beta-2 (Rattus norvegicus)', -0.272),
  ('COc1ccc(C)cc1NCc1cccc(OC)c1OC', 'Voltage-gated potassium channel subunit beta-2 (Rattus norvegicus)', -0.496),
  ('CC(C)c1ccc(S(=O)(=O)N2CCN(CCC(=O)Nc3ccc(N(C)C)cc3)CC2)cc1', 'Voltage-gated potassium channel subunit beta-2 (Rattus norvegicus)', -0.397),
  ('Cc1ccc(C(=O)CSc2n[nH]c(-c3ccco3)n2)cc1C', 'Voltage-gated potassium channel subunit beta-2 (Rattus norvegicus)', -0.479),
  ('CCC(=O)Nc1c(C#N)c2nc3ccccc3nc2n1-c1ccccc1C', 'Voltage-gated potassium channel subunit beta-2 (Rattus norvegicus)', -0.0512),
  ('c1ccc2c(c1)CC(N1CCCCC1)c1ccccc1N2 (centres undefined)', 'Voltage-gated potassium channel subunit beta-2 (Rattus norvegicus)', -0.41),
  ('COc1cc2c(cc1OC)C(c1ccc(C)o1)CC(=O)N2 (centres undefined)', 'Voltage-gated potassium channel subunit beta-2 (Rattus norvegicus)', -0.574),
  ('Cc1ccc(N2C(=O)c3ccccc3C2Nc2cccnc2)nc1 (centres undefined)', 'Voltage-gated potassium channel subunit beta-2 (Rattus norvegicus)', -0.585),
  ('CCOC(=O)c1[nH]c(CSc2nnc(-c3ccc(OC)cc3)o2)c(C(=O)OCC)c1C', 'Voltage-gated potassium channel subunit beta-2 (Rattus norvegicus)', -0.304),
  ('COc1ccc(C2C(C#N)=C(N)Oc3cc4c(cc32)OCO4)cc1 (centres undefined)', 'Voltage-gated potassium channel subunit beta-2 (Rattus norvegicus)', -0.401),
  ('CCOC(=O)C1CSC(CC(=O)Nc2ccc(Cl)cc2)C(=O)N1 (centres undefined)', 'Voltage-gated potassium channel subunit beta-2 (Rattus norvegicus)', -0.325),
  ('CCCN1CC23C=CC(O2)C(C(=O)O)C3C1=O (centres undefined)', 'Voltage-gated potassium channel subunit beta-2 (Rattus norvegicus)', -0.518),
  ('CC(NC(=O)C1CC1)C(c1cccs1)N1CCN(c2ccccc2)CC1 (centres undefined)', 'Voltage-gated potassium channel subunit beta-2 (Rattus norvegicus)', -0.495),
  ('O=C(Nc1ccc(Br)cc1F)c1sccc1-n1cccc1', 'Voltage-gated potassium channel subunit beta-2 (Rattus norvegicus)', -0.397),
  ('CC1=C(C(=O)NC2CCCC(C)C2C)C2(CCCCC2)OC1=O (centres undefined)', 'Voltage-gated potassium channel subunit beta-2 (Rattus norvegicus)', -0.598),
  ('O=C(c1cccnc1)N1CCN(Cc2ccc3c(c2)OCO3)CC1', 'Voltage-gated potassium channel subunit beta-2 (Rattus norvegicus)', -0.411),
  ('COCCn1nnnc1C(c1cc2cc(OC)ccc2[nH]c1=O)N1CCC(Cc2ccccc2)CC1 (centres undefined)', 'Voltage-gated potassium channel subunit beta-2 (Rattus norvegicus)', -0.359),
  ('COC(=O)Nc1nc2c(C)cccc2s1', 'Voltage-gated potassium channel subunit beta-2 (Rattus norvegicus)', -0.469),
  ('COc1ccc(CCNC(=O)C2CCN(S(=O)(=O)c3cc(OC)ccc3OC)CC2)cc1', 'Voltage-gated potassium channel subunit beta-2 (Rattus norvegicus)', -0.39),
  ('COC(=O)C1CCN(C(=O)NC(C)(C)C)CC1', 'Voltage-gated potassium channel subunit beta-2 (Rattus norvegicus)', -0.618),
  ('Cc1c(C(=O)NCc2ccccc2)oc2c1C(=O)CCC2', 'Voltage-gated potassium channel subunit beta-2 (Rattus norvegicus)', -0.372),
  ('COc1cc(NC2=CC(=O)CC(C)(C)C2)cc(OC)c1', 'Voltage-gated potassium channel subunit beta-2 (Rattus norvegicus)', -0.373);

###

# testName: endothelial E-selectin expression blockers – imaging, HUVEC, immunofluorescence, MLSMR starter and 10KST1 sets, primary screen (AID 487);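 further: signal is fraction of cell area covered by stained E-selectin grains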
# assayConditions: HUVEC TNFalpha-induced E-selectin immunofluorescence imaging, at 2 µM; hits give high values
The source made the active and inactive calls.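 Rule for the calls: active = visually confirmed hit in the image check and inhibition above 20%; inconclusive = visually confirmed hit but inhibition not above 20%; inactive = no visual hit in the image check.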
measurementType: inhibition

INSERT INTO results (compound, measurementtype, result) VALUES
  ('CN1CC=C2C(C#N)=C(N)C(C#N)(C#N)C(Cc3ccccc3)C2C1 (stereo unspecified)', 'inhibition', '-7.7% (inactive)'),
  ('CCn1c(=S)ccc2ccc(OC)cc21', 'inhibition', '-13.4% (inactive)'),
  ('CCCOc1ccccc1C1CC(=O)Nc2cc3c(cc21)OCCO3 (stereo unspecified)', 'inhibition', '29.7% (inactive)'),
  ('Cc1ccc(C)c(NS(=O)(=O)c2ccc(NC(=O)c3ccco3)cc2)c1', 'inhibition', '-15.1% (inactive)'),
  ('Cc1cccc(Nc2nc3c(c(=O)n(C)c(=O)n3C)n2Cc2ccccc2)c1', 'inhibition', '-73.5% (inactive)'),
  ('CCCCN(C)C(=O)c1ccc(CS(=O)(=O)c2ccccc2C)o1', 'inhibition', '-44.3% (inactive)'),
  ('O=C(CSc1nnc2ccccn12)c1ccccc1', 'inhibition', '23.4% (inactive)'),
  ('Cc1cccc(N2CCN(C(=O)CCn3c(=S)[nH]c4cc5c(cc4c3=O)OCO5)CC2C)c1 (stereo unspecified)', 'inhibition', '-1.8% (inactive)'),
  ('O=C(CN1CCOCC1)N1CCCc2c1c(=O)oc1ccc(OCc3ccccc3)cc21', 'inhibition', '-40.7% (inactive)'),
  ('CC(C)(Oc1ccc(Cl)cc1)C(=O)NC1CCSC1=O (stereo unspecified)', 'inhibition', '-63.4% (inactive)'),
  ('COc1ccccc1OCC(=O)Nc1cccc(-c2nc3ccccc3o2)c1', 'inhibition', '-65.1% (inactive)');

###

# testName: blockers of RIG-like receptor reporter activation – cell-based, Sendai virus stimulus, luciferase, 10K MLSCN set, TLR/RLR signaling modifier project, primary screen (AID 602276);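 further: firefly luciferase from ISG56 promoter only with Renilla not read in this screen; 0% = Sendai virus plus DMSO and 100% = medium plus DMSO without virus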
# assayConditions: HEK293 RL24 IRF3 luciferase reporter, at 10 µM, hits give high values
The source made the active and inactive calls.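 The calls were made as follows: active = inhibition at or above 50% at 10 µM; inactive = inhibition below 50%.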
measurementType: inhibition

INSERT INTO assay_data (molecule, result) VALUES
  ('COc1ccc(S(=O)(=O)N(C)C2CCN(C)CC2)cc1', '7.34% (inactive)'),
  ('COC(=O)CSc1nnc(-c2cccs2)n1-c1ccc(Cl)cc1', '17% (inactive)'),
  ('Cc1occc1C(=O)N1CCN(Cc2ccccc2)CC1', '7.4% (inactive)'),
  ('Cc1c(Cl)cnc(NC(=O)COC(=O)C(NC(=O)c2ccco2)C(C)C)c1Cl (stereo not given)', '6.87% (inactive)'),
  ('COc1cc2cc(C(c3nnnn3C3CCCC3)N(C)C3CCCCC3)c(=O)[nH]c2cc1OC (stereo not given)', '12.4% (inactive)'),
  ('CCOc1ccc(-c2nnn(CC(=O)N3CCN(c4ccc(F)cc4)CC3)n2)cc1OCC', '16.8% (inactive)'),
  ('COc1ccc(-n2c(=O)c3c4c(sc3n3cnnc23)CC(C)CC4)cc1 (stereo not given)', '23.9% (inactive)'),
  ('CC(C)C1C2=C(CC(C)(C)CC2=O)ON1c1ccccc1 (stereo not given)', '14.4% (inactive)'),
  ('CCCCN(Cc1cc2cc(OC)ccc2[nH]c1=O)C(=O)c1ccccn1', '-4.21% (inactive)'),
  ('O=C(COc1ccccc1Cl)NCCCN1CCOCC1', '10.2% (inactive)'),
  ('Cn1c(CNc2nc(-c3ccccc3)cs2)nnc1SCC(=O)N1CCc2ccccc21', '-7.07% (inactive)'),
  ('CCCCn1c(SCC(=O)N2CC(=O)Nc3ccccc32)nnc1-c1ccoc1C', '13.2% (inactive)'),
  ('Cc1cccc(N=C2NC(=O)CS2)c1C', '20.6% (inactive)'),
  ('Fc1cccc(Cl)c1Cn1nnc2c(NCc3ccccn3)ncnc21', '6.08% (inactive)'),
  ('c1ccc(Cn2nnnc2C(c2cccs2)N2CCSCC2)cc1 (stereo not given)', '-6.43% (inactive)'),
  ('Cc1ccccc1Nc1nc(N)nc(CSCc2c(C)noc2C)n1', '-21.3% (inactive)'),
  ('COc1ccc(C(=O)N2CCSC2=S)cc1OC', '4.55% (inactive)'),
  ('Cn1c(-c2cc(Br)ccc2O)n[nH]c1=S', '-4.65% (inactive)'),
  ('O=C(C1CCN(S(=O)(=O)c2cccc3cccnc23)CC1)N1CCN(C2CCCCC2)CC1', '-4.22% (inactive)'),
  ('CCCS(=O)(=O)N1CCCC(C(=O)NC2CCCC(C)C2C)C1 (stereo not given)', '9.58% (inactive)'),
  ('Cc1cc2oc(=O)cc(C)c2c(=O)o1', '-5.14% (inactive)'),
  ('CCOC(=O)C1CCCN(Cc2nc(N)nc(Nc3ccc(C)cc3)n2)C1 (stereo not given)', '22.6% (inactive)'),
  ('Cc1ccc2[nH]c(=O)c(-c3noc(-c4ccncc4)n3)cc2c1', '8.49% (inactive)'),
  ('CCOC(=O)CSc1nnc([C@H](C)NC(=O)OC(C)(C)C)o1', '3.34% (inactive)'),
  ('Nn1c(SCC(=O)Nc2ccc(Oc3ccccc3)cc2)nnc1C1CC1', '-8.58% (inactive)'),
  ('N#CC(C(=O)c1ccco1)c1ccccn1 (stereo not given)', '-8.81% (inactive)'),
  ('Cc1onc(-c2ccccc2Cl)c1C(=O)N1CCc2ccccc21', '10.6% (inactive)'),
  ('CCN(CCCNC(=O)COc1cc(=O)n(CC)c2ccccc12)c1ccccc1', '5.07% (inactive)'),
  ('O=C(NCCC1=CCCCC1)N[C@@H](Cc1ccccc1)C(=O)O', '-1.48% (inactive)'),
  ('NC(=O)CSc1cn(CCNC(=O)c2cccs2)c2ccccc12', '-2.46% (inactive)'),
  ('Cc1cc(=O)[nH]c(=S)n1-c1ccccc1', '15.3% (inactive)'),
  ('COC(=O)CN(c1ccc(OC)cc1)S(=O)(=O)c1ccc(OC)c(OC)c1', '10.6% (inactive)'),
  ('CS(=O)(=O)N1CCc2cc(S(=O)(=O)Nc3ccc4oc5c(c4c3)CCCC5)ccc21', '11.9% (inactive)'),
  ('CCOc1ccc(-c2nc(N)ncc2-c2ccccc2)c(O)c1', '-1.82% (inactive)'),
  ('Cc1cccc(N2CCN(C(=O)Cn3nc(Cc4ccncc4)c4ccccc4c3=O)CC2)c1C', '4.52% (inactive)'),
  ('CCOc1ccc(N(CC(=O)NC2CCCCC2)S(=O)(=O)c2c(C)noc2C)cc1', '-0.99% (inactive)'),
  ('COc1ccc2nc(NC(=O)C3CCCN(S(=O)(=O)c4cccc5nsnc45)C3)sc2c1 (stereo not given)', '-3.68% (inactive)'),
  ('COc1cc(C(=O)Nc2ccc(-n3cnnn3)c(C)c2)cc(OC)c1OC', '-0.467% (inactive)'),
  ('COc1cc2c(C#N)c(N3CCOCC3)nc(N)c2c(N)n1', '15.2% (inactive)'),
  ('Cc1cc(Oc2ccc(Cl)cc2)nc(-c2ccccc2O)n1', '3.04% (inactive)'),
  ('CC(C)c1nnc(NC(=O)c2cnccn2)s1', '-7.98% (inactive)'),
  ('COc1cccc(NC(=O)COC(=O)c2cccnc2)c1', '20.2% (inactive)'),
  ('COc1ccc(NC(=O)CN(c2cc(C)cc(C)c2)S(=O)(=O)c2c(C)noc2C)cc1OC', '15.1% (inactive)'),
  ('COc1ccc(-c2[nH]c(-c3cccc(OC)c3)nc2SCC(=O)NCc2ccco2)cc1', '10.3% (inactive)'),
  ('CCOCCCNC(=O)C1CCN(S(=O)(=O)c2c(C)noc2/C=C\c2ccc(OC)cc2)CC1', '-4.28% (inactive)');

Origin of values: PubChem BioAssay
